Data provenance: patent US20260053792A1

experiment-notes: Tissue distribution of compound A26 in mice (plasma / cerebrospinal fluid drug concentration)
Format: in vivo
measurement-setup: mouse, cerebrospinal fluid, PO 20 mg/kg, 30 min, read-out: cerebrospinal fluid
readout: concentration at 30 min (ng/g)

INSERT INTO assay_data (compound, readout, uom, numeric_readout) VALUES
  ('COc1cc2c(cc1OC)C(CCc1c[nH]c3ccccc13)N(CC1CCOCC1)CC2 (stereo not shown)', 'concentration at 30 min', 'ng/g', 32.4);

----------
experiment-notes: Tissue distribution of compound A26 in mice (plasma / cerebrospinal fluid drug concentration)
Format: in vivo
measurement-setup: mouse, plasma, IV 5 mg/kg, 30 min, read-out: Cardiac plasma
Procedure: The drug concentrations in plasma or cerebrospinal fluid at two time points of 15 minutes and 30 minutes under three administration routes: oral (20 mg/kg), intraperitoneal injection (10 mg/kg), and intravenous injection (5 mg/kg) were measured.
readout: concentration at 30 min (ng/mL)

INSERT INTO measurements (molecule, numeric_readout) VALUES
  ('COc1cc2c(cc1OC)C(CCc1c[nH]c3ccccc13)N(CC1CCOCC1)CC2 (stereo not shown) [Compound A26]', 135);

----------
experiment-notes: Tissue distribution of compound A26 in mice (plasma / cerebrospinal fluid drug concentration)
Assay type: in vivo
measurement-setup: mouse, brain/plasma, IP 10 mg/kg, 15 min, read-out: Brain to plasma drug concentration ratio (Cbrain/Cplasma)
readout: Kp at 0.25 h

INSERT INTO assay_data (compound, readout, result) VALUES
  ('COc1cc2c(cc1OC)C(CCc1c[nH]c3ccccc13)N(CC1CCOCC1)CC2 (stereo not shown)', 'Kp at 0.25 h', 2.12);

----------
experiment-notes: Tissue distribution of compound A26 in mice (plasma / cerebrospinal fluid drug concentration)
Format: in vivo
measurement-setup: mouse, brain/plasma, PO 20 mg/kg, 15 min, read-out: Brain to plasma drug concentration ratio (Cbrain/Cplasma)
readout: Kp at 0.25 h

INSERT INTO measurements (compound, readout, numeric_readout) VALUES
  ('COc1cc2c(cc1OC)C(CCc1c[nH]c3ccccc13)N(CC1CCOCC1)CC2 (stereo not shown) [Compound A26]', 'Kp at 0.25 h', 3.4);

----------
experiment-notes: Tissue distribution of compound A26 in mice (plasma / cerebrospinal fluid drug concentration)
Assay type: in vivo
measurement-setup: mouse, plasma, IP 10 mg/kg, 15 min, read-out: Cardiac plasma
readout: concentration at 15 min (ng/mL)

INSERT INTO measurements (compound, numeric_readout) VALUES
  ('COc1cc2c(cc1OC)C(CCc1c[nH]c3ccccc13)N(CC1CCOCC1)CC2 (stereo not shown)', 313);

----------
experiment-notes: Tissue distribution of compound A26 in mice (plasma / cerebrospinal fluid drug concentration)
Type: in vivo
measurement-setup: mouse, brain/plasma, IV 5 mg/kg, 15 min, read-out: Brain to plasma drug concentration ratio (Cbrain/Cplasma)
readout: Kp at 0.25 h

INSERT INTO assay_data (molecule, readout, result) VALUES
  ('COc1cc2c(cc1OC)C(CCc1c[nH]c3ccccc13)N(CC1CCOCC1)CC2 (stereo not shown)', 'Kp at 0.25 h', 3.3);

----------
experiment-notes: Tissue distribution of compound A26 in mice (plasma / cerebrospinal fluid drug concentration)
Assay type: in vivo
measurement-setup: mouse, brain/plasma, IV 5 mg/kg, 30 min, read-out: Brain to plasma drug concentration ratio (Cbrain/Cplasma)
readout: Kp at 0.5 h

INSERT INTO results (compound, numeric_readout) VALUES
  ('COc1cc2c(cc1OC)C(CCc1c[nH]c3ccccc13)N(CC1CCOCC1)CC2 (stereo not shown)', 2.2);
